The measured values listed here are drawn from ChEMBL document CHEMBL5338817.

Target: CREB-binding protein (Homo sapiens, UniProt Q92793)
Experiment: Induction of CBP degradation in human RS4-11 cells assessed as maximal degradation incubated for 4 hrs by Western blot assay
Assay type: cell-based
Sequence (Q92793 2-2442 limits assumed): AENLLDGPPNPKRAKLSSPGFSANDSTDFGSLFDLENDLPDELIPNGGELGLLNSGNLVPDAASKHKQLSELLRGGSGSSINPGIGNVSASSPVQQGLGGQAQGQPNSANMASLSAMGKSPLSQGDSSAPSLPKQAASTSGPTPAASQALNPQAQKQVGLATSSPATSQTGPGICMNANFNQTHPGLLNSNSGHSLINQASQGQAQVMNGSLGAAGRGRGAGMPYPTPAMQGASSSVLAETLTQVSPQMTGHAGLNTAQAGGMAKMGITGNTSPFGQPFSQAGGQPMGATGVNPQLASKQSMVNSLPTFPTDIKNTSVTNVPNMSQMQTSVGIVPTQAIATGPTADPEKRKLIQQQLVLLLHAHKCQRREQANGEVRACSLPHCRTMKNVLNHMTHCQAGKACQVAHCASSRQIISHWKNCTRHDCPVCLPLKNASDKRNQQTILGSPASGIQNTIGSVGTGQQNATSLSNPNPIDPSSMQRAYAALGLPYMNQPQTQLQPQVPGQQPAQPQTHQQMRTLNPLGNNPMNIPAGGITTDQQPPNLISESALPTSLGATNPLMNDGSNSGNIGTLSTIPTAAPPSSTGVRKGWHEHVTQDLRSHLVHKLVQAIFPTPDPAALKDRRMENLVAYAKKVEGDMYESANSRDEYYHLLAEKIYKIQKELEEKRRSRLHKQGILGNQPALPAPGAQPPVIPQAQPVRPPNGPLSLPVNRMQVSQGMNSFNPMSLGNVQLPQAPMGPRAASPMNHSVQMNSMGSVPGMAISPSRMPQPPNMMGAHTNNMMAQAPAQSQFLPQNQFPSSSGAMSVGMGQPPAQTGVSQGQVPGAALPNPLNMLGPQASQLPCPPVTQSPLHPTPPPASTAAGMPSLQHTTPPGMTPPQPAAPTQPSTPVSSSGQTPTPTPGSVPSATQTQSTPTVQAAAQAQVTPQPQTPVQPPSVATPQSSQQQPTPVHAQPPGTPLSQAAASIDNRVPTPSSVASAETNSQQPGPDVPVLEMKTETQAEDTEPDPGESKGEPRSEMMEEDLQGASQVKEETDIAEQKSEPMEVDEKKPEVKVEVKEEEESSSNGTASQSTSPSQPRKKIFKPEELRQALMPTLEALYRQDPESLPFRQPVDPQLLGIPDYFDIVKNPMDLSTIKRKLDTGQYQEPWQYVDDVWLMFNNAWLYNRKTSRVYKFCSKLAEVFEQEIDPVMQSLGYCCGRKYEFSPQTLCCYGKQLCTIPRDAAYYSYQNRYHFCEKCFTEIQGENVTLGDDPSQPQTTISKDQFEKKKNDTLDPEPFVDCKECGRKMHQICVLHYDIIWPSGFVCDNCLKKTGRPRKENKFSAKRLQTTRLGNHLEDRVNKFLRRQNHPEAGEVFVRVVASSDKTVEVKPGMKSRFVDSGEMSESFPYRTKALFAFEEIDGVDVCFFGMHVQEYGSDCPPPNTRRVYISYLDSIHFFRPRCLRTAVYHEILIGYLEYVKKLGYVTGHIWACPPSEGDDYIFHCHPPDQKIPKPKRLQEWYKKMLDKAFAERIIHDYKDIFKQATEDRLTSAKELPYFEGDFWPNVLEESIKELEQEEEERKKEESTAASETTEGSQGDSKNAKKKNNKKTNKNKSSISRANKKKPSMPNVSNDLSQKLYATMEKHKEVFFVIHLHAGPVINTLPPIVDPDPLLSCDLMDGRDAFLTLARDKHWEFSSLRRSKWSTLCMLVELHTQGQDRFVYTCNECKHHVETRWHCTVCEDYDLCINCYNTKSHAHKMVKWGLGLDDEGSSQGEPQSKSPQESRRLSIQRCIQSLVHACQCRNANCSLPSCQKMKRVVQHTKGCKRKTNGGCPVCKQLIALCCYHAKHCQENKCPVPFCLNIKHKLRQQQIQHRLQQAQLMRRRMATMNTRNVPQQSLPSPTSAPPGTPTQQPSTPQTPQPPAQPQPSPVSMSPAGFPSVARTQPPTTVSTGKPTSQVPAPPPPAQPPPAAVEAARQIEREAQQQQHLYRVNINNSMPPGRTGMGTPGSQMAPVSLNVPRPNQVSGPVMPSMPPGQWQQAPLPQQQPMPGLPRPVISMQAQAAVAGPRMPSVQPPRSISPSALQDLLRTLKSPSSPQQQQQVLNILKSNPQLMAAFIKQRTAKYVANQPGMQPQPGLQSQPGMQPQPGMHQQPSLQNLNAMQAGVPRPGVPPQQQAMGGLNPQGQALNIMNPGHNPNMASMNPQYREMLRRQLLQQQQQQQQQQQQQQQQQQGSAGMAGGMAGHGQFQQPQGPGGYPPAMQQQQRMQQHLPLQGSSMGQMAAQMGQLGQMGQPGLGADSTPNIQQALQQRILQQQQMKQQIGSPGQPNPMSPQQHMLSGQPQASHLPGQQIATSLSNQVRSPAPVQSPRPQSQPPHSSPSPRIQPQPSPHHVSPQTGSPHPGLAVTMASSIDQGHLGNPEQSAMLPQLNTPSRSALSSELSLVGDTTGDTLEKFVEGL
READOUT_LABEL: Emax (%)

Example compounds with recorded Emax:
[
  {
    "COMPOUND": "CC(=O)N1CCc2c(c(-c3cccc4cc(-c5ccc(C(=O)NC6CCN(c7ccc8c(c7)CN(C7CCC(=O)NC7=O)C8=O)CC6)nc5)ncc34)nn2C2CCOCC2)C1 (configuration not stated)",
    "Emax, %": 99
  },
  {
    "COMPOUND": "CC(=O)N1CCc2c(c(-c3cccc4cc(-c5ccc(C(=O)N6CCC(C7CN(c8cccc9c8C(=O)N(C8CCC(=O)NC8=O)C9=O)C7)CC6)nc5)ncc34)nn2C2CCOCC2)C1 (configuration not stated)",
    "Emax, %": 85
  },
  {
    "COMPOUND": "CC(=O)N1CCc2c(c(-c3cccc4cc(-c5ccc(C(=O)N6CCC7(CC6)CC(Nc6cccc8c6C(=O)N(C6CCC(=O)NC6=O)C8=O)C7)nc5)ncc34)nn2C2CCOCC2)C1 (configuration not stated)",
    "Emax, %": 96
  },
  {
    "COMPOUND": "CC(=O)N1CCc2c(c(-c3cccc4cc(-c5ccc(C(=O)N6CCC(C7CCN(c8cccc9c8C(=O)N(C8CCC(=O)NC8=O)C9=O)CC7)CC6)nc5)ncc34)nn2C2CCOCC2)C1 (configuration not stated)",
    "Emax, %": 58
  }
]

(A) CC(=O)N1CCc2c(c(-c3cccc4cc(-c5ccc(C(=O)NCCNc6cccc7c6CN(C6CCC(=O)NC6=O)C7=O)nc5)ncc34)nn2C2CCOCC2)C1 (configuration not stated)
(B) CC(=O)N1CCc2c(c(-c3cccc4cc(-c5ccc(C(=O)NCCNc6cccc7c6C(=O)N(C6CCC(=O)NC6=O)C7=O)nc5)ncc34)nn2C2CCOCC2)C1 (configuration not stated)
Query block: # return whichever of A and B has the smaller Emax Answer = label.
Result block: B

====

Target: Histone acetyltransferase p300 (Homo sapiens)
Assay: Induction of p300 degradation in human RS4-11 cells assessed as maximal degradation incubated for 4 hrs by Western blot assay relative to control
Format: cell-based
READOUT_LABEL: Emax (%)

[
  {
    "COMPOUND": "CC(=O)N1CCc2c(c(-c3cccc4cc(-c5ccc(C(=O)NCCCCc6cccc7c6CN(C6CCC(=O)NC6=O)C7=O)nc5)ncc34)nn2C2CCOCC2)C1 (centres undefined)",
    "TESTED_SYSTEM": "Histone acetyltransferase p300 (Homo sapiens)",
    "QUANTITY_UNIT": "%",
    "Emax": 99
  },
  {
    "COMPOUND": "CC(=O)N1CCc2c(c(-c3cccc4cc(-c5ccc(C(=O)N6CCN(c7cccc8c7C(=O)N(C7CCC(=O)NC7=O)C8=O)CC6)nc5)ncc34)nn2C2CCOCC2)C1 (centres undefined)",
    "TESTED_SYSTEM": "Histone acetyltransferase p300 (Homo sapiens)",
    "QUANTITY_UNIT": "%",
    "Emax": 99
  },
  {
    "COMPOUND": "CC(=O)N1CCc2c(c(-c3cccc4cc(-c5ccc(C(=O)NCCNc6cccc7c6CN(C6CCC(=O)NC6=O)C7=O)nc5)ncc34)nn2C2CCOCC2)C1 (centres undefined)",
    "TESTED_SYSTEM": "Histone acetyltransferase p300 (Homo sapiens)",
    "QUANTITY_UNIT": "%",
    "Emax": 97
  },
  {
    "COMPOUND": "CC(=O)N1CCc2c(c(-c3cccc4cc(-c5ccc(C(=O)NCCCCNc6cccc7c6C(=O)N(C6CCC(=O)NC6=O)C7=O)nc5)ncc34)nn2C2CCOCC2)C1 (centres undefined)",
    "TESTED_SYSTEM": "Histone acetyltransferase p300 (Homo sapiens)",
    "QUANTITY_UNIT": "%",
    "Emax": 77
  },
  {
    "COMPOUND": "CC(=O)N1CCc2c(c(-c3cccc4cc(-c5ccc(C(=O)NCCCCCCCNc6cccc7c6C(=O)N(C6CCC(=O)NC6=O)C7=O)nc5)ncc34)nn2C2CCOCC2)C1 (centres undefined)",
    "TESTED_SYSTEM": "Histone acetyltransferase p300 (Homo sapiens)",
    "QUANTITY_UNIT": "%",
    "Emax": 87
  }
]

(P) CC(=O)N1CCc2c(c(-c3cccc4cc(-c5ccc(C(=O)NCCCNc6cccc7c6CN(C6CCC(=O)NC6=O)C7=O)nc5)ncc34)nn2C2CCOCC2)C1 (centres undefined)
(Q) CC(=O)N1CCc2c(c(-c3cccc4cc(-c5ccc(C(=O)N6CC7(CCC(Nc8cccc9c8C(=O)N(C8CCC(=O)NC8=O)C9=O)CC7)C6)nc5)ncc34)nn2C2CCOCC2)C1 (centres undefined)
(R) CC(=O)N1CCc2c(c(-c3cccc4cc(-c5ccc(C(=O)N6CCC7(CCC(Nc8cccc9c8C(=O)N(C8CCC(=O)NC8=O)C9=O)CC7)CC6)nc5)ncc34)nn2C2CCOCC2)C1 (centres undefined)
(S) CC(=O)N1CCc2c(c(-c3cccc4cc(-c5ccc(C(=O)N6CCC(Nc7cccc8c7C(=O)N(C7CCC(=O)NC7=O)C8=O)CC6)nc5)ncc34)nn2C2CCOCC2)C1 (centres undefined)
Query block: Arrange items by their Emax values in increasing order. Respond with an ordered listing of the labels, as requested.
Result block: R, S, Q, P
(R: 10%, S: 25%, Q: 62%, P: 95%)

(a) CC(=O)N1CCc2c(c(-c3cccc4cc(-c5ccc(C(=O)NCCCCCNc6cccc7c6C(=O)N(C6CCC(=O)NC6=O)C7=O)nc5)ncc34)nn2C2CCOCC2)C1 (centres undefined)
(b) CC(=O)N1CCc2c(c(-c3cccc4cc(-c5ccc(C(=O)N6CCC7(CC6)CC(Nc6cccc8c6C(=O)N(C6CCC(=O)NC6=O)C8=O)C7)nc5)ncc34)nn2C2CCOCC2)C1 (centres undefined)
Query block: Of the two listed items, a and b , which carries the larger Emax figure? Answer = label.
Result block: a
(a: 95%, b: 51%)

====

Target: CREB-binding protein (Homo sapiens, UniProt Q92793)
Assay: Induction of CBP degradation in human RS4-11 cells assessed as maximal degradation incubated for 4 hrs by Western blot assay
Type: cell-based
READOUT_LABEL: Emax (%)

[
  {
    "MOLECULE": "CC(=O)N1CCc2c(c(-c3cccc4cc(-c5ccc(C(=O)NCCCCCCCCNc6cccc7c6C(=O)N(C6CCC(=O)NC6=O)C7=O)nc5)ncc34)nn2C2CCOCC2)C1 (stereo not drawn)",
    "Emax (%)": 99
  }
]

(A) CC(=O)N1CCc2c(c(-c3cccc4cc(-c5ccc(C(=O)NCCCCCc6cccc7c6CN(C6CCC(=O)NC6=O)C7=O)nc5)ncc34)nn2C2CCOCC2)C1 (stereo not drawn)
(B) CC(=O)N1CCc2c(c(-c3cccc4cc(-c5ccc(C(=O)N6CCC7(CCC(Nc8cccc9c8C(=O)N(C8CCC(=O)NC8=O)C9=O)CC7)CC6)nc5)ncc34)nn2C2CCOCC2)C1 (stereo not drawn)
Query block: Of the two listed items, A and B , which carries the larger Emax figure? Answer = label.
Result block: A
(A: 99%, B: 21%)

====

Target: Histone acetyltransferase p300 (Homo sapiens, UniProt Q09472)
Sequence (Q09472 whole entry): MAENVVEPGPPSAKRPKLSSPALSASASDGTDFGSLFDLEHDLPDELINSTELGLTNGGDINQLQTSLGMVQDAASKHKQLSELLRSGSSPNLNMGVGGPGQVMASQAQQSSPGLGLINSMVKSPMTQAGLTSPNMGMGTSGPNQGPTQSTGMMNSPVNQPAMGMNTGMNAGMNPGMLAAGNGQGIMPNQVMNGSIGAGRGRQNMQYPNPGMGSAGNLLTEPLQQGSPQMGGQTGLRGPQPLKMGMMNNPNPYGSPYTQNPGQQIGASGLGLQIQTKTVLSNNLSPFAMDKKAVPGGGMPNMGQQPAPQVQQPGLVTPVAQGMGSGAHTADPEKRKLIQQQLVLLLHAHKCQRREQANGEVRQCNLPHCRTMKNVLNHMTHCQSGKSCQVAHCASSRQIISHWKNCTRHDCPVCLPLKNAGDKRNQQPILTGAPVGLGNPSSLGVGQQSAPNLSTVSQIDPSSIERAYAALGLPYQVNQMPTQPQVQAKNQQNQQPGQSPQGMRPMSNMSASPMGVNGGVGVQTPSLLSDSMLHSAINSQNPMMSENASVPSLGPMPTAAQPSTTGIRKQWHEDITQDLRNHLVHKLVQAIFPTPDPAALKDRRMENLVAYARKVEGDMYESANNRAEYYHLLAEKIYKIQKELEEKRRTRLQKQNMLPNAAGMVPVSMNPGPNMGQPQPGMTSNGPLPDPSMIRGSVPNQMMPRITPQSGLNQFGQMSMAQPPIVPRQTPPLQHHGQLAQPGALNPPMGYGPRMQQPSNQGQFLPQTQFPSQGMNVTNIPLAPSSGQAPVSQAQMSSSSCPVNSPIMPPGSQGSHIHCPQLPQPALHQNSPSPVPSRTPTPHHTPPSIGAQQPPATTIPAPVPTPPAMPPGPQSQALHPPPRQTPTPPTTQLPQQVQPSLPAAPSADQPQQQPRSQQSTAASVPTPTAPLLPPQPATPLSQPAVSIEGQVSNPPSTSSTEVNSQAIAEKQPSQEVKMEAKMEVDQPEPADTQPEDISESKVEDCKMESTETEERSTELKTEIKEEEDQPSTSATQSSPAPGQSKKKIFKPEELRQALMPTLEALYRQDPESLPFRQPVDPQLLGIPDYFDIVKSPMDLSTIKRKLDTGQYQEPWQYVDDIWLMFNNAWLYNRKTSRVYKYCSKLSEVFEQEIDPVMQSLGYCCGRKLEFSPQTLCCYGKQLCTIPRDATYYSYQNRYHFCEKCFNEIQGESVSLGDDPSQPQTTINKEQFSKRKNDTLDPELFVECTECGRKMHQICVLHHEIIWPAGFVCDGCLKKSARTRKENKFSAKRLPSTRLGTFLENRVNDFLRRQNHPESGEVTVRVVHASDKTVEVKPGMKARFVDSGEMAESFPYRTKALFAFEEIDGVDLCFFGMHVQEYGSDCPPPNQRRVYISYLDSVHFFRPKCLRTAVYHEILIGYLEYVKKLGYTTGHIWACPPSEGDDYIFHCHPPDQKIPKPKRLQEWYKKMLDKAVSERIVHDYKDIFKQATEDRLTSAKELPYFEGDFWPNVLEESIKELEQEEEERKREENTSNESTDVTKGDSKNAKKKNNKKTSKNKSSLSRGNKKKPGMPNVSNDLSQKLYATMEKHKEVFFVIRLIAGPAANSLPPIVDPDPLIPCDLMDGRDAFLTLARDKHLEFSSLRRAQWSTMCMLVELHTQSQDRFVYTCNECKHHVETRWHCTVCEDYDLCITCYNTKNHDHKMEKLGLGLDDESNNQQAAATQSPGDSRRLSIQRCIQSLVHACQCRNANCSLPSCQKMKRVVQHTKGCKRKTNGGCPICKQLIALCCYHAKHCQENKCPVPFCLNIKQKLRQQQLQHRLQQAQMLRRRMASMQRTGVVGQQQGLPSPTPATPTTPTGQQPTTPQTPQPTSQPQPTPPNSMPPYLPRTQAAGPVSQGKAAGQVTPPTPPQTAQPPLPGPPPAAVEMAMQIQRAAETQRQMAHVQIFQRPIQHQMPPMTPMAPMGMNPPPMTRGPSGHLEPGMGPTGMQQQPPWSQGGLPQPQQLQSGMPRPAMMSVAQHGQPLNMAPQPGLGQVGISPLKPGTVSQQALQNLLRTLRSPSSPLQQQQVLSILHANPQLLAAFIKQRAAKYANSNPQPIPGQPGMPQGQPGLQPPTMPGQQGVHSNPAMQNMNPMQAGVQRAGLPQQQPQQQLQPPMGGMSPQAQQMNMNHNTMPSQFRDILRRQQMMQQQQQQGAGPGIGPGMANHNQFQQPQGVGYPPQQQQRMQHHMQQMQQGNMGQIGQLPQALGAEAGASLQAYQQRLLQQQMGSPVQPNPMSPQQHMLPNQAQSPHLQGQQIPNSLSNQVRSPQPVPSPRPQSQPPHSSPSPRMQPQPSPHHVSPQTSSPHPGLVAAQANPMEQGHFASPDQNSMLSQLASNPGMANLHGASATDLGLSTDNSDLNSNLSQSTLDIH
Assay: Induction of p300 degradation in human RS4-11 cells incubated for 4 hrs by Western blot assay
READOUT_LABEL: EC50 (nM)

(A) CC(=O)N1CCc2c(c(-c3cccc4cc(-c5ccc(C(=O)NCCCCCCCCNc6cccc7c6C(=O)N(C6CCC(=O)NC6=O)C7=O)nc5)ncc34)nn2C2CCOCC2)C1 (stereo not drawn)
(B) CC(=O)N1CCc2c(c(-c3cccc4cc(-c5ccc(C(=O)N6CC7(CC(Nc8cccc9c8C(=O)N(C8CCC(=O)NC8=O)C9=O)C7)C6)nc5)ncc34)nn2C2CCOCC2)C1 (stereo not drawn)
Query block: Of the two listed items, A and B , which carries the larger EC50 figure? Answer = label.
Result block: A
(A: 1.6 nM, B: 1.1 nM)

====

Target: CREB-binding protein (Homo sapiens, UniProt Q92793)
Assay: Induction of CBP degradation in human RS4-11 cells incubated for 4 hrs by Western blot assay
pEC50: −log10 of the molar value.
READOUT_LABEL: pEC50

[
  {
    "COMPOUND": "CC(=O)N1CCc2c(c(-c3cccc4cc(-c5ccc(C(=O)NC6CCN(c7ccc8c(c7)C(=O)N(C7CCC(=O)NC7=O)C8=O)CC6)nc5)ncc34)nn2C2CCOCC2)C1 (centres undefined)",
    "TESTED_SYSTEM": "CREB-binding protein (Homo sapiens, UniProt Q92793)",
    "pEC50": 9.00
  }
]

(a) CC(=O)N1CCc2c(c(-c3cccc4cc(-c5ccc(C(=O)NCCCCCNc6cccc7c6C(=O)N(C6CCC(=O)NC6=O)C7=O)nc5)ncc34)nn2C2CCOCC2)C1 (centres undefined)
(b) CC(=O)N1CCc2c(c(-c3cccc4cc(-c5ccc(C(=O)N6CCC7(CC6)CC(Nc6cccc8c6C(=O)N(C6CCC(=O)NC6=O)C8=O)C7)nc5)ncc34)nn2C2CCOCC2)C1 (centres undefined)
Query block: # return whichever of a and b has the smaller pEC50 Answer = label.
Result block: b
(b: 8.77, a: 9.00)
